tested on: Escherichia coli; test: Antibacterial activity against Escherichia coli ATCC 25922 assessed as fold reduction of MIC in presence of efflux pump inhibitor PAbetaN incubated for 18 hrs by CLSI broth microdilution method; assay type: functional
Assign fold change (FC) to each entry below.
# output: bare number, no unit

Challenge: Query (molecule): C[Si]1(C)OB(O)c2cccc(F)c21 ; field requested: fold change (FC)
Response given: 32

Challenge: Can you check C[Si]1(C)OB(O)c2c(C=O)cc(F)c(F)c21 next?
Response given: 64

Challenge: Can you check C[Si]1(C)OB(O)c2cc(F)c(CO)c(F)c21 next?
Response given: 4

Challenge: Can you check C[Si]1(C)OB(O)c2cc(F)c(F)cc21 next?
Response given: 32

Challenge: Can you check C[Si]1(C)OB(O)c2ccc(C(F)(F)F)cc21 next?
Response given: 16

Challenge: Can you check C[Si]1(C)OB(O)c2ccc(F)cc21 next?
Response given: 16

Challenge: Can you check C[Si]1(C)OB(O)c2cc3c(c(F)c21)COB3O next?
Response given: 16

Challenge: Can you check C[Si]1(C)OB(O)c2ccc(Cl)cc21 next?
Response given: 64

Challenge: Can you check C[Si]1(C)OB(O)c2c(F)c(F)c(F)c(F)c21 next?
Response given: 32

Challenge: Can you check C[Si]1(C)OB(O)c2cc(C=O)cc(F)c21 next?
Response given: 16

Challenge: Can you check C[Si]1(C)OB(O)c2cccc(B(O)O)c21 next?
Response given: 4

Challenge: Can you check C[Si]1(C)OB(O)c2cc(F)c(C=O)c(F)c21 next?
Response given: 4

Challenge: Can you check C[Si]1(C)OB(O)c2ccc(C=O)c(F)c21 next?
Response given: 16

Challenge: Can you check C[Si]1(C)OB(O)c2ccc(F)c(F)c21 next?
Response given: 32

Challenge: Can you check C[Si]1(C)OB(O)c2cc(B(O)O)cc(F)c21 next?
Response given: 8

Challenge: Can you check C[Si]1(C)OB(O)c2ccc(Cl)c(Cl)c21 next?
Response given: 64

Challenge: Can you check C[Si]1(C)OB(O)c2c(F)c3c(c(F)c21)B(O)OC3 next?
Response given: 8

Challenge: Can you check C[Si]1(C)OB(O)c2ccc(B(O)O)cc21 next?
Response given: 8

Challenge: Can you check C[Si]1(C)OB(O)c2ccccc21 next?
Response given: 4

----------
test system: Staphylococcus epidermidis; assay: Antibacterial activity against Staphylococcus epidermidis ATCC 12228 assessed as diameter of zone inhibition measured after 18 hrs by CLSI disc diffusion method; assay type: functional
Assign diameter of the inhibition zone (DIZ) to each entry below.
A number alone suffices; assume mm.

Challenge: Query (molecule): C[Si]1(C)OB(O)c2ccc(Cl)cc21 ; field requested: diameter of the inhibition zone (DIZ)
Response given: 33

Challenge: Can you check C[Si]1(C)OB(O)c2ccc(C(F)(F)F)cc21 next?
Response given: 20

Challenge: Can you check C[Si]1(C)OB(O)c2cc3c(c(F)c21)COB3O next?
Response given: 34

Challenge: Can you check C[Si]1(C)OB(O)c2cccc(Cl)c21 next?
Response given: 33

Challenge: Can you check C[Si]1(C)OB(O)c2ccc(B(O)O)cc21 next?
Response given: 32

Challenge: Can you check C[Si]1(C)OB(O)c2cc(F)c(F)cc21 next?
Response given: 28

Challenge: Can you check C[Si]1(C)OB(O)c2ccc(C=O)c(F)c21 next?
Response given: 27

Challenge: Can you check C[Si]1(C)OB(O)c2cc(B(O)O)cc(F)c21 next?
Response given: 29

Challenge: Can you check C[Si]1(C)OB(O)c2cccc(Br)c21 next?
Response given: 30

Challenge: Can you check C[Si]1(C)OB(O)c2c(F)c3c(c(F)c21)B(O)OC3 next?
Response given: 35

Challenge: Can you check C[Si]1(C)OB(O)c2cc(F)c(C=O)c(F)c21 next?
Response given: 22

Challenge: Can you check C[Si]1(C)OB(O)c2cc(C=O)cc(F)c21 next?
Response given: 31

Challenge: Can you check C[Si]1(C)OB(O)c2ccc(F)c(F)c21 next?
Response given: 33

All figures here come from ChEMBL document CHEMBL4346672.
